# Test system: MDA-N
# Test Protocol: NCI tumour cell line growth inhibition, 48 h
Calls of active or inactive are those of the source. No stated cut-off is given here; in the data, active = GI50 up to about 1.1 µM and inactive = higher.
Quantity Measured: GI50

Request: Which value of GI50 has been reported for COc1c(O)cc2c(c1O)C1O[C@H](CO)C(O)[C@H](O)[C@H]1OC2=O (some centres undefined) in the records?
Result: > 100 µM (inactive)

Request: What would you report for [O-][n+]1c2c([n+]([O-])c3ccccc31)-c1cccc3cccc-2c13 ?
Result: > 100 µM (inactive)

Request: What would you report for C=C(C)[C@@H]1CCC2=C[C@H](OC2=O)[C@@]2(C)C[C@@H]2C(=O)/C=C(/C)C(=O)[C@H]1OC(C)=O ?
Result: 8.67 µM (inactive)

Request: What would you report for CC1OC(OC2C(O)COC(OC3C(C)OC(OC4C(OC(=O)[C@]56CCC(C)(C)C[C@@H]5C5=CCC7[C@@]8(C)C[C@H](O)[C@H](OC9OC(CO)C(O)C(OC%10OC(CO)C(O)C(O)C%10O)C9O)[C@@](C)(CO)[C@@H]8CC[C@@]7(C)[C@]5(C)CC6)OCC(O)C4O)C(O)C3OC3OCC(O)C(O)C3O)C2O)C(O)C(O)C1O (some centres undefined) ?
Result: 2.87 µM (inactive)
